Recorded FcγIIa (read at 405 nm) values for a group of sequences are listed next.
# System: FcγIIa
# test name: Reverse ELISA: inhibition of PAP immune complex binding to FcγIIa coated plates
# assay conditions: PAP pre-incubated 1 h with peptide, 1 h on FcγIIa coated plates; lower = more inhibition; positive control 1.599
No end group written: not given here.
experimental readout: FcγIIa (read at 405 nm)

1) DCAWHLGELVWCT	0.561
2) DCAFHLGELVWCT	0.660
3) APPCAFHLGELVWCT (not fully specified; cysteine pairing not given here)	0.605
4) APPCARHLGELVWCT	0.956
5) APPCAWHLGELVWCT	0.658
6) APPDCAWHLGELVWCT	0.509
